Where do the numbers come from? From patent US12637428B2.

// EPHA2 (Homo sapiens, UniProt P29317) Ki records
value-kind: Ki (µM)

{"columns": ["molecule", "value-kind", "measured"],
 "data": [
  ["Cc1cccc(F)c1-c1cc(OC2CCNCC2)c2cc(N)ncc2c1 [Example 46]", "Ki", 0.0392]
]}

A. Cc1cccc(F)c1-c1cc(NC[C@@H]2CCNC2)c2cc(N)ncc2c1 [Example 6]
B. CNC[C@@H]1CCCN(c2cc(-c3c(C)cccc3F)cc3cnc(N)cc23)C1 [Example 22]
-- ask // pick larger Ki from pair: A vs B When you have decided, please share the label of that item.
-- reply B

* * *

So I've got pKi readings for Abl (Homo sapiens, UniProt P00519), take a look.
pKi: −log10 of the molar value.
value-kind: pKi

{"columns": ["smiles-record", "pKi"],
 "data": [
  ["Cc1cccc(F)c1-c1cc(N2CCC[C@@H](CN(C)C)C2)c2cc(N)ncc2c1", 7.56],
  ["Cc1cccc(Cl)c1-c1cc(NC2CCNCC2)c2ccncc2c1", 7.18],
  ["Cc1cccc(F)c1-c1cc(NC[C@H]2CCN(C)C2)c2cc(N)ncc2c1", 7.99],
  ["Cc1cccc(F)c1-c1cc(N[C@@H]2CCN(C)C2)c2cc(N)ncc2c1", 8.29]
]}

I. Cc1cccc(F)c1-c1cc(NC2CCNCC2)c2c(C#N)c(N)ncc2c1
II. Cc1cccc(F)c1-c1cc(C(=O)NC2CCN(C)CC2)c2cc(N)ncc2c1
III. Cc1cccc(F)c1-c1cc(NC[C@H]2CCCN(C)C2)c2cc(N)ncc2c1
-- ask Rank the 3 compounds: largest pKi first, smallest last. State the ranking by listing the labels in the requested order.
-- reply I, II, III

* * *

target: Abl (Homo sapiens)
Sequence (P00519 whole entry): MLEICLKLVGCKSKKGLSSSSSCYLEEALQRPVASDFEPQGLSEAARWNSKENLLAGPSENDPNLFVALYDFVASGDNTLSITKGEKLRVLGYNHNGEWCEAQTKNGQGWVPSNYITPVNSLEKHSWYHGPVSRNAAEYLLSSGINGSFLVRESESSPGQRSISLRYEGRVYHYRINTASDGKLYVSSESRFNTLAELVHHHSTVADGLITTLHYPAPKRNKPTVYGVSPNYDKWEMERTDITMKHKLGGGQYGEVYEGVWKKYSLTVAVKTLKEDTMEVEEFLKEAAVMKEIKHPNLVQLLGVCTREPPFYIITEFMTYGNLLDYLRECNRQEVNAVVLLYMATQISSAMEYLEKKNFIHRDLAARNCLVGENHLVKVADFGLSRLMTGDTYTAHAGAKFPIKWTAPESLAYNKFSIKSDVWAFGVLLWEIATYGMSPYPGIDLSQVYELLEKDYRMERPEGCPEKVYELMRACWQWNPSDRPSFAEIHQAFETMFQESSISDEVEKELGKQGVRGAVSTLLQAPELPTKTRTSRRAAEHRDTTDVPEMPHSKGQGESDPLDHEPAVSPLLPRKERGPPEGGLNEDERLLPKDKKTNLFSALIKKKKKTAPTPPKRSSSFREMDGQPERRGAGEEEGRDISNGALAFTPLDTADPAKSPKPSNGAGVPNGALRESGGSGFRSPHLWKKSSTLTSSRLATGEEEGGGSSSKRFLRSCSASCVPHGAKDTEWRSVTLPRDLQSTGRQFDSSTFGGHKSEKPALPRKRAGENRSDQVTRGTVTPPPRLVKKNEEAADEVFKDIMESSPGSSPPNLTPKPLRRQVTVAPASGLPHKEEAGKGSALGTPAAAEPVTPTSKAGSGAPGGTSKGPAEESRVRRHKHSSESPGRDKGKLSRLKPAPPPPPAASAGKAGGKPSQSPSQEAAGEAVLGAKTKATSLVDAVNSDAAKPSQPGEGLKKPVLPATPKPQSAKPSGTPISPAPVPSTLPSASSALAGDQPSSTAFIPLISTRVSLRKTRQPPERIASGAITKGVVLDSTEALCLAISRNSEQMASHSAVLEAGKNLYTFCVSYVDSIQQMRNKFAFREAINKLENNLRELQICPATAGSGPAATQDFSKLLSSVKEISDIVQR
pKi: −log10 of the molar value.
value-kind: pKi

These recorded examples may help you get a feel for the data.
{"columns": ["compound", "study-target", "pKi"],
 "data": [
  ["CN[C@@H]1CCCN(c2cc(-c3c(C)cccc3F)cc3cnc(N)cc23)C1", "Abl (Homo sapiens)", 7.61],
  ["Cc1cccc(F)c1-c1cc(N[C@@H]2CCCNC2)c2cc(N)ncc2c1", "Abl (Homo sapiens)", 8.30],
  ["Cc1cccc(F)c1-c1cc(NC[C@H]2CCCN2C)c2cc(N)ncc2c1", "Abl (Homo sapiens)", 8.19],
  ["Cc1cccc(F)c1-c1cc2cnc(N)cc2c(NC2CCNCC2)c1F", "Abl (Homo sapiens)", 8.71]
]}

1. Cc1cccc(F)c1-c1cc(NC2CN(C)C2)c2cc(N)ncc2c1
2. Cc1cccc(F)c1-c1cc(N[C@H]2CCCCNC2)c2cc(N)ncc2c1
3. Cc1cccc(F)c1-c1cc(NC[C@@H]2CCCCN2C)c2cc(N)ncc2c1
4. Cc1cccc(F)c1-c1cc(C(=O)NC2CCNC2)c2cc(N)ncc2c1 (stereo not shown)
-- ask Sort ascending by pKi. To answer, write out the labels according to the requested order.
-- reply 4, 1, 3, 2
(4: 5.26, 1: 7.75, 3: 8.16, 2: 8.43)

P. Cc1cccc(F)c1-c1cc(NC2CCNCC2)c2cc(N)ncc2c1
Q. Cc1cccc(F)c1-c1ccc2c(C(=O)NC3CN(C)C3)c(N)ncc2c1
-- ask Of P and Q , whose reported pKi is numerically smaller? Respond using the label that marks the chosen record.
-- reply Q
(Q: 7.08, P: 7.79)

1. Cc1cccc(F)c1-c1cc(N[C@H]2CCNC2)c2cc(N)ncc2c1
2. Cc1cccc(Cl)c1-c1cc(NC2CCNCC2)c2cc(N)ncc2c1
-- ask Lab log: flag the item ( 1 or 2 ) with the smaller pKi figure. Refer to your chosen item by its label in the answer.
-- reply 2
(2: 7.44, 1: 8.26)

* * *

This section lists Ki readings for Src (Homo sapiens).
value-kind: Ki (nM)

Before answering, review these 4 worked examples.
{"columns": ["compound", "Ki (nM)"],
 "data": [
  ["Cc1cccc(F)c1-c1cc(OC2CNC2)c2cc(N)ncc2c1 [Example 47]", 731],
  ["Cc1cccc(F)c1-c1cc(N2CCC[C@@H](N(C)C)C2)c2cc(N)ncc2c1 [Example 84]", 274],
  ["Cc1cccc(F)c1-c1cc(NC2CNC2)c2ccncc2c1 [Example 51]", 220],
  ["CCN1CCC(Nc2cc(-c3c(C)cccc3Cl)cc3cnc(N)nc23)CC1 [Example 128]", 27.4]
]}

A. Cc1cccc(F)c1-c1cc(N[C@@H]2CCNC2)c2cc(N)ncc2c1 [Example 4]
B. Cc1cccc(F)c1-c1cc(NC[C@@H]2CCCN2)c2cc(N)ncc2c1 [Example 13]
-- ask Please indicate which has the smaller reported Ki: A , or B . // respond with label for picked entry
-- reply B

* * *

For reference, Ki measured on Src (Homo sapiens):
value-kind: Ki (µM)

Below, each entry is followed by its recorded Ki result.
{"columns": ["smiles-record", "value-kind", "readout-unit", "measured"],
 "data": [
  ["Cc1cccc(F)c1-c1cc(N[C@H]2CCNC2)c2cc(N)ncc2c1", "Ki", "µM", 0.193],
  ["Cc1cccc(F)c1-c1cc(C(=O)NC2CN(C)C2)c2cc(N)ncc2c1", "Ki", "µM", 0.0414]
]}

I. Cc1cccc(F)c1-c1cc(N2CCC[C@H](CN(C)C)C2)c2cc(N)ncc2c1
II. CN[C@@H]1CCCN(c2cc(-c3c(C)cccc3F)cc3cnc(N)cc23)C1
-- ask For the pair I and II , which entry has the numerically smaller recorded Ki? Mark your selection by writing its label.
-- reply II
(II: 0.306 µM, I: 0.798 µM)

* * *

biological target: SIK3 (Homo sapiens, UniProt Q9Y2K2)
Sequence (Q9Y2K2 whole entry): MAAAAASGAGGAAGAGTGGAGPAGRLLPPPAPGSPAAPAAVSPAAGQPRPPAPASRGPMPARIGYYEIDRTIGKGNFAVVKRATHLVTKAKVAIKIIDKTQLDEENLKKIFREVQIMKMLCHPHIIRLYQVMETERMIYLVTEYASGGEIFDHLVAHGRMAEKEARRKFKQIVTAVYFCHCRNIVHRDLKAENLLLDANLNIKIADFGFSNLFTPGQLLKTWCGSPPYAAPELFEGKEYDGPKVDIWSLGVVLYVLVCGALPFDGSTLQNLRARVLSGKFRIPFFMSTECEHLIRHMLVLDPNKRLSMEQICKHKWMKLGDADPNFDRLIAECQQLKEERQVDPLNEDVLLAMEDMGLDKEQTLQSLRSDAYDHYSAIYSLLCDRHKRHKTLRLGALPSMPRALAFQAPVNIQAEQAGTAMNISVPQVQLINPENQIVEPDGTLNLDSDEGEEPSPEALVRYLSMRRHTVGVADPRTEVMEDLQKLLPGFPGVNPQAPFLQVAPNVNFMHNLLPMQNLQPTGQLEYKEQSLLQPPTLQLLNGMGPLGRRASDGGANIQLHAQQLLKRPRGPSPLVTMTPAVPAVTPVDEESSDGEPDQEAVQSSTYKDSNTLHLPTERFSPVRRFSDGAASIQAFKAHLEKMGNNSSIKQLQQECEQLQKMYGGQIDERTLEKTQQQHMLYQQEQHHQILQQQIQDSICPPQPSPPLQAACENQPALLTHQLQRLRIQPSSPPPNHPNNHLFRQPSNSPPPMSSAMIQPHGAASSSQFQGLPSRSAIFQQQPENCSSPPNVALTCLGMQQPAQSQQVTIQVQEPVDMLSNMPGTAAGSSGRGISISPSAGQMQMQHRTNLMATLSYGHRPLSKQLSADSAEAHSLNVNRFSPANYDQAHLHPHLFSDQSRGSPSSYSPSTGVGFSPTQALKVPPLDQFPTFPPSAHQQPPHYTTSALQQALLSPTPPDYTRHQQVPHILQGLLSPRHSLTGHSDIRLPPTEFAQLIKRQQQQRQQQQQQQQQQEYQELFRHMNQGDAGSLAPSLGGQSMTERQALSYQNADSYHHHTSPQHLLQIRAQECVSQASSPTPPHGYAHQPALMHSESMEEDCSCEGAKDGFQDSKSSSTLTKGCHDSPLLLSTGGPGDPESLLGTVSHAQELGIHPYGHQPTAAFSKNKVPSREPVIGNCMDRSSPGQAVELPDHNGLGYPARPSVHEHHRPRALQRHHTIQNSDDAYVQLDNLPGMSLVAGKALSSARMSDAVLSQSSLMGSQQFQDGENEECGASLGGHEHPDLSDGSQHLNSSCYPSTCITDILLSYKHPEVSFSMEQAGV
pKi: −log10 of the molar value.
value-kind: pKi

{"columns": ["molecule", "value-kind", "measured"],
 "data": [
  ["CC(=O)NC1CCN(c2cc(-c3c(C)cccc3F)cc3cnc(N)cc23)CC1 [Example 114]", "pKi", 7.69],
  ["CNC1CCN(c2cc(-c3c(C)cccc3F)cc3cnc(N)cc23)CC1 [Example 15]", "pKi", 8.71],
  ["Cc1cccc(Cl)c1-c1cc(NC2CN(C)C2)c2ccncc2c1 [Example 67]", "pKi", 7.57],
  ["Cc1cccc(F)c1-c1cc(N2CCC[C@H](O)C2)c2cc(N)ncc2c1 [Example 107]", "pKi", 6.70],
  ["Cc1cccc(F)c1-c1cc(C(=O)NC2CCNCC2)c2cc(N)ncc2c1 [Example 52]", "pKi", 7.94]
]}

a. Cc1cccc(F)c1-c1cc(NC2CCNCC2)c2ccncc2c1 [Example 49]
b. Cc1cccc(F)c1-c1ccc2c(C(=O)NC3CN(C)C3)c(N)ncc2c1 [Example 89]
c. Cc1cccc(F)c1-c1cc(NC[C@@H]2CCCCN2)c2cc(N)ncc2c1 [Example 14]
d. CNC[C@@H]1CCCN(c2cc(-c3c(C)cccc3F)cc3cnc(N)cc23)C1 [Example 22]
e. Cc1cccc(F)c1-c1cc(NCC2CN(C)C2)c2cc(N)ncc2c1 [Example 72]
-- ask Endpoint returns the given molecules ordered by ascending pKi. Lab note: final answer is the ordered label list.
-- reply b, d, c, e, a

A. Cc1cccc(F)c1-c1cc(OC2CCN(C)CC2)c2cc(N)ncc2c1 [Example 101]
B. CCN1CCC(Nc2cc(-c3c(C)cccc3F)cc3cncnc23)CC1 [Example 126]
C. Cc1cccc(F)c1-c1cc(NC2CCNCC2)c2cc(N)ncc2c1 [Example 1]
D. Cc1cccc(F)c1-c1cc(NC2CCN(C)CC2)c2cc(N)ncc2c1F [Example 119]
-- ask Returns the items ordered by pKi, from maximum to minimum. Ranked list of labels, please, in the requested order.
-- reply C, A, B, D

A. Cc1cccc(F)c1-c1cc(NC[C@@H]2CCNC2)c2cc(N)ncc2c1 [Example 6]
B. Cc1cccc(F)c1-c1cc(N2CC(N(C)C)C2)c2cc(N)ncc2c1 [Example 79]
-- ask Which gives the smaller pKi number: A or B ? Refer to your chosen entry by its label in the reply.
-- reply B
(B: 8.65, A: 9.24)

* * *

// each record: one item and its pKi for SIK3 (Homo sapiens, UniProt Q9Y2K2)
pKi: −log10 of the molar value.
value-kind: pKi

{"columns": ["smiles-record", "study-target", "pKi"],
 "data": [
  ["CNC1CN(c2cc(-c3c(C)cccc3F)cc3cnc(N)cc23)C1", "SIK3 (Homo sapiens, UniProt Q9Y2K2)", 9.35],
  ["Cc1cccc(F)c1-c1cc(N2CCC[C@@H](CN(C)C)C2)c2cc(N)ncc2c1", "SIK3 (Homo sapiens, UniProt Q9Y2K2)", 7.40]
]}

P. Cc1cccc(F)c1-c1cc(NC[C@@H]2CCCNC2)c2cc(N)ncc2c1
Q. CCN1CCC(Nc2cc(-c3c(C)cccc3F)c(F)c3cnc(N)cc23)CC1
R. Cc1cccc(Cl)c1-c1cc(NC2CCNCC2)c2nc(N)ncc2c1
-- ask # sort list by recorded pKi, greatest to least Output the labels ranked as instructed.
-- reply R, P, Q
(R: 9.29, P: 9.02, Q: 7.11)

a. CC(=O)N[C@@H]1CCN(c2cc(-c3c(C)cccc3F)cc3cnc(N)cc23)C1
b. Cc1cccc(F)c1-c1cc(N[C@@H]2CCCCNC2)c2cc(N)ncc2c1
-- ask Compare reported pKi values for a and b . Which is lower? Identify your pick by its label.
-- reply a

a. Cc1cccc(F)c1-c1cc(N[C@@H]2CCN(C)C2)c2cc(N)ncc2c1
b. Cc1cccc(F)c1-c1cc(NC2CCNCC2)c2nc(N)ncc2c1
c. Cc1cccc(F)c1-c1cc(OC2CNC2)c2cc(N)ncc2c1
d. Cc1cccc(F)c1-c1cc(N[C@H]2CCCNC2)c2cc(N)ncc2c1
-- ask Reorder: pKi, max to min. List the labels, following the order given in the request.
-- reply d, b, a, c

I. CCN1CCC(Nc2cc(-c3c(C)cccc3F)cc3cnc(N)nc23)CC1
II. Cc1cccc(Cl)c1-c1cc(NC2CCN(C)CC2)c2cc(N)ncc2c1
-- ask Parameter metric = pKi. Return the lower-valued option from I and II . Choose, then provide that item's label.
-- reply II
(II: 8.53, I: 8.92)
